# assay-remarks: Inhibition of baker's yeast alpha-glucosidase using PNP-G as substrate preincubated for 10 mins followed by substrate addition and measured after 20 mins
# Set-up: species or system Saccharomyces cerevisiae
metric: IC50 (µM)
Could you give me the number in µM? Just the number is fine.

Field request: IC50 | item: COc1ccc(/C=C/C(=O)O)cc1
44

In the following, a different molecule is considered.
Field request: IC50 | item: CCOC(=O)/C=C/c1ccc(OC)cc1 [4-METHOXY ETHYL CINNAMATE]
50

====

Recorded IC50 by entry
# assay-remarks: Inhibition of Bacillus stearothermophilus alpha-glucosidase using PNP-G as substrate incubated for 20 mins
# Set-up: species or system Geobacillus stearothermophilus
Could you give me the number in nM? Just the number is fine.

Field request: IC50 | item: CCCCCCC1(CCCCCC)O[C@H]2Cc3c(O)cc(O)cc3O[C@@H]2c2cc(O)c(O)cc21
1100

Next:
Field request: IC50 | item: CC1(C)O[C@H]2Cc3c(O)cc(O)cc3O[C@@H]2c2cc(O)c(O)cc21
700

====

# assay-remarks: Inhibition of alpha-amyloglucosidase (unknown origin) assessed as reduction in conversion of starch to glucose using starch as substrate preincubated with substrate for 20 mins followed by enzyme addition and measured after 30 mins
Recorded pIC50 by entry
Field pIC50 (float): negative decimal logarithm of the concentration in molar.

Field request: pIC50 | item: O=C1NC(=O)C(Cc2ccc(CNc3nc4ccccc4n3Cc3ccccc3)cc2)S1 (stereo not given)
5.30

Field request: pIC50 | item: C[C@H]1O[C@H](O[C@H]2[C@H](O)[C@@H](O)[C@@H](O[C@H]3[C@H](O)[C@@H](O)C(O)O[C@@H]3CO)O[C@@H]2CO)[C@H](O)[C@@H](O)[C@@H]1N[C@H]1C=C(CO)[C@@H](O)[C@H](O)[C@H]1O (stereo not given in full)
4.82

Field request: pIC50 | item: Cn1c(Nc2ccc(CC3SC(=O)NC3=O)cc2)nc2ccccc21 (stereo not given)
5.05

Field request: pIC50 | item: Cn1c(NCc2ccc(CC3SC(=O)NC3=O)cc2)nc2ccccc21 (stereo not given)
5.05

In the following, a different compound is considered.
Field request: pIC50 | item: O=C1NC(=O)C(Cc2ccc(Nc3nc4ccccc4n3Cc3ccccc3)cc2)S1 (stereo not given)
5.40

====

# assay-remarks: Inhibition of yeast alpha-glucosidase
# Design: species or system Saccharomyces cerevisiae
Recorded IC50 by entry
Could you give me the number in µM? Just the number is fine.

Field request: IC50 | item: OC[C@H]1OC(O)[C@H](O)[C@@H](O)[C@@H]1O (some centres not stated)
2.6

In the following, a different compound is considered.
Field request: IC50 | item: O=c1c(-c2ccc(O)cc2)coc2cc(O)cc(O)c12
10.4

====

# assay-remarks: Inhibition of alpha-glucosidase (unknown origin) using PNP glycoside as substrate preincubated for 30 mins followed by substrate addition and measured after 60 mins by spectrophotometric analysis
Recorded IC50 by entry
Could you give me the number in µM? Just the number is fine.

Please review the following examples before continuing.
Field request: IC50 | item: Brc1cccc(-c2nc3ccc(Br)cc3[nH]2)c1
21

Field request: IC50 | item: CCCCOc1ccc(-c2nc3ccc(Br)cc3[nH]2)cc1
25

Field request: IC50 | item: COc1ccc(-c2nc3ccc(Br)cc3[nH]2)c(O)c1
38

Field request: IC50 | item: Oc1ccccc1-c1nc2ccc(Br)cc2[nH]1
38

Field request: IC50 | item: Oc1ccc(-c2nc3ccc(Br)cc3[nH]2)cc1
8

Next:
Field request: IC50 | item: C[C@H]1O[C@H](O[C@H]2[C@H](O)[C@@H](O)[C@@H](O[C@H]3[C@H](O)[C@@H](O)C(O)O[C@@H]3CO)O[C@@H]2CO)[C@H](O)[C@@H](O)[C@@H]1N[C@H]1C=C(CO)[C@@H](O)[C@H](O)[C@H]1O (stereo partly specified)
38

====

# assay-remarks: Inhibition of rat intestinal lactase preincubated for 10 mins followed by substrate addition
metric: IC50 (µM)
Could you give me the number in µM? Just the number is fine.

Field request: IC50 | item: CC1(C)CCC[C@]2(C)c3cc(O)c(O)cc3C(=O)C[C@@H]12
20

====

# assay-remarks: Inhibition of baker's yeast alpha-glucosidase using p-nitrophenyl-alpha-glucopyranoside as substrate by spectrophotometric analysis
# Set-up: species or system Saccharomyces cerevisiae
metric: pKi
Field pKi (float): negative decimal logarithm of the concentration in molar.

Field request: pKi | item: O=C(NC[C@H]1N[C@H](CO)[C@@H](O)[C@@H]1O)C1Cc2ccccc21 (stereo partly specified)
7.28

====

# assay-remarks: Inhibition of rat intestinal isomaltase preincubated for 10 mins followed by substrate addition
metric: IC50 (nM)
Could you give me the number in nM? Just the number is fine.

Field request: IC50 | item: CC1(C)CCC[C@]2(C)c3cc(O)c(O)cc3C(=O)C[C@@H]12
850

====

# assay-remarks: Inhibition of rat intestinal sucrase using sucrose as substrate incubated for 15 mins by spectometric analysis
metric: IC50 (µM)
Could you give me the number in µM? Just the number is fine.

Field request: IC50 | item: Oc1cc(O)c2c(c1)O[C@H](c1ccc(O)c(O)c1)[C@@H](O)C2
2490

====

# assay-remarks: Inhibition of rat intestinal gluco-amylase preincubated for 10 mins followed by substrate addition
metric: pIC50
Field pIC50 (float): negative decimal logarithm of the concentration in molar.

Field request: pIC50 | item: CC1(C)CCC[C@]2(C)c3cc(O)c(O)cc3C(=O)C[C@@H]12
5.80

====

# assay-remarks: Cytotoxicity against MDCK cells
# Format: toxicity, cell-based, Canis lupus familiaris
# condition-parameters: dog
metric: IC50

Field request: IC50 | item: C/C=C/Oc1cc(C=O)ccc1O
> 600 µM

====

# assay-remarks: Inhibition of saccharomyces cerevisiae alpha-glucosidase using pNPG as substrate preincubated for 15 mins followed by substrate addition
Recorded IC50 by entry
Please state the number and follow it with the unit.

Please review the following examples before continuing.
Field request: IC50 | item: Cc1cccc2nc(-c3ccc(O)c(O)c3)[nH]c12
25 µM

Field request: IC50 | item: Cc1cccc2nc(-c3ccccc3Cl)[nH]c12
5 µM

Field request: IC50 | item: COc1ccc(-c2nc3cccc(C)c3[nH]2)c(O)c1
30 µM

Field request: IC50 | item: Cc1cccc2nc(-c3ccccc3F)[nH]c12
34 µM

Field request: IC50 | item: Cc1cccc2nc(-c3ccccc3[N+](=O)[O-])[nH]c12
45 µM

Next:
Field request: IC50 | item: Cc1cccc2nc(-c3ccccc3O)[nH]c12
16 µM

Field request: IC50 | item: COc1ccc(O)c(-c2nc3cccc(C)c3[nH]2)c1
45 µM

====

# assay-remarks: Inhibition of rat intestinal sucrase preincubated for 10 mins followed by substrate addition
metric: IC50 (µM)
Could you give me the number in µM? Just the number is fine.

Field request: IC50 | item: CC1(C)CCC[C@]2(C)c3cc(O)c(O)cc3C(=O)C[C@@H]12
6.8

Data origin, for the record: ChEMBL document CHEMBL5126544
